Data origin: PubChem BioAssay (NCI)

Some molecules, each annotated with its measured growth.
Tested on: COLO 205 colon
Assay: NCI-60 one-dose screen, 48 h (100 = growth as untreated, 0 = no growth, -100 = all killed)
Conditions: 10 µM unless noted
Experimental: Cells are grown in 96 well plates and exposed to the test compound for 48 hours. Compounds are tested at a single concentration, which is 10^-5 M for most compounds. The reported endpoint is percent growth (GI% or GIPRCNT), where numbers from 0 - 100% represent growth inhibition, and numbers from -100% - 0 represent cell death. For example, a value of 40 represents 60% growth inhibition. A value of 0 means no net growth occurred over the course of the experiment. […]
About 83,000 compounds went through this panel and 20% of them were active in at least one assay; those are over-represented in the sample as a whole.

- Molecule: "Cc1ccc(C2=Nc3c(N)ncnc3NC(c3cccc(Nc4ccnc5cc(C(F)(F)F)ccc45)c3)C2)cc1 (centres undefined)"
  Unit name: "%"
  growth: 9.89
- Molecule: "Cc1cc(N2CCN(CC(=O)Nc3ccc4c(ccn4C)c3)CC2)nc(N2CCCCCC2)n1"
  Unit name: "%"
  growth: 81.1
- Molecule: "COC1=CC(c2ccc[nH]2)=N/C1=C\\c1[nH]c(C)c(CC(=O)NCc2ccccc2)c1C"
  Unit name: "%"
  growth: 1.08
- Molecule: "O=C(Nc1nc2ccc(C(=O)N3CCN(/C=C/c4ccccc4)CC3)cc2s1)c1ccc(NCCc2ccccc2)c([N+](=O)[O-])c1"
  Unit name: "%"
  growth: 18.5

====

Some compounds, each annotated with its measured growth.
test system: IGROV1 ovarian; assay: NCI-60 one-dose screen, 48 h (100 = growth as untreated, 0 = no growth, -100 = all killed); details: 10 µM unless noted
Compounds without any hit were thinned out: in the full panel of roughly 83,000, 20% have a hit.

- Compound: "O=C1/C(=C/c2ccccc2Br)COc2ccc(O)cc21"
  Assayed target: "IGROV1 ovarian"
  growth [%]: 78.6
- Compound: "COc1ccc(/C=C/C(=O)c2cccc(OCCCCOc3cccc(C(=O)/C=C/c4ccc(OC)c(OC)c4)c3)c2)cc1OC"
  Assayed target: "IGROV1 ovarian"
  growth [%]: 75.2
- Compound: "CC(=O)N1N=C(c2ccc(C(F)(F)F)c(F)c2)CC1c1[nH]c(C)c(C(=O)NCC(F)(F)F)c1C (centres undefined)"
  Assayed target: "IGROV1 ovarian"
  growth [%]: 69.5
- Compound: "CC1=C([Se]CC(OC(=O)CC[Se]c2ccccc2)C(=O)NC(C)(C)C)C(=O)c2ccccc2C1=O (centres undefined)"
  Assayed target: "IGROV1 ovarian"
  growth [%]: -19.2
- Compound: "O=C1c2ccccc2-c2c1c1c(=O)[nH]c3ccccc3c1n2Cc1ccccc1"
  Assayed target: "IGROV1 ovarian"
  growth [%]: 71.5
- Compound: "Cc1cc(=O)n(C(=O)Nc2ccccc2Cl)c2cc(O)ccc12"
  Assayed target: "IGROV1 ovarian"
  growth [%]: 104
- Compound: "O=C(/C=C/c1cn(-c2ccccc2)nc1-c1ccc(Cl)cc1)c1ccc(F)cc1"
  Assayed target: "IGROV1 ovarian"
  growth [%]: 81.1
- Compound: "Cc1cn(-c2cc(NC(=O)c3cccc(C#Cc4cccc5[nH]nc(N)c45)c3)cc(C(F)(F)F)c2)cn1"
  Assayed target: "IGROV1 ovarian"
  growth [%]: 15.4
- Compound: "Cc1ccc(-c2nc(N3CCCNCC3)c3oc(-c4ccc(C)cc4)nc3n2)cc1"
  Assayed target: "IGROV1 ovarian"
  growth [%]: 12.2

====

system: HCT-116 colon; assay: NCI-60 one-dose screen, 48 h; details: 10 µM unless noted
The panel holds about 83,000 compounds, 20% with a hit somewhere; the sample as a whole holds those more often. Activity calls are given as the source filed them. Rule for the calls: active = growth percent below 10; inactive = the rest.
Labels: 1 (yes) for active, 0 (no) for inactive

- Molecule: "CCN(CC)c1ccc(\\C=N/N=C(N)/C(N)=N\\N=C/c2ccc(N(CC)CC)cc2)cc1"
  Group: "0 (no)"
- Molecule: "CCOC(=O)c1nn(-c2ccc(S(N)(=O)=O)cc2)c2nc(C)cc(=O)n12"
  Group: "0 (no)"
- Molecule: "COc1cc(-c2cncn2-c2ccc(-c3nc4ccc(F)cc4s3)cc2)ccc1F"
  Group: "0 (no)"
- Molecule: "Cc1cc(=O)n(C(=O)Nc2ccccc2Cl)c2cc(O)ccc12"
  Group: "0 (no)"
- Molecule: "COc1cc(OC)c(NC(=O)c2cc3ccccc3cc2O)cc1Cl"
  Group: "0 (no)"
- Molecule: "N#CC1=C(c2ccccc2)Nc2c(c(-c3ccc(Cl)cc3)nn2-c2ccccc2)C12C(=O)Nc1ccc(Cl)cc12 (centres undefined)"
  Group: "0 (no)"
- Molecule: "COC(=O)[C@]1(C)CCC[C@]2(C)[C@H]3C[C@H]4C(C(C)C)=C[C@]3(CC[C@H]21)[C@@H]1C(=O)CC[C@H](OCCC#N)[C@@H]14"
  Group: "0 (no)"
- Molecule: "COc1ccc(CNc2c3ccccc3nc3ccccc23)cc1"
  Group: "1 (yes)"
- Molecule: "COc1cc2c(c(OC)c1OC)CCC(c1cccc(NC(=O)c3ccc(Br)cc3)c1)O2 (centres undefined)"
  Group: "0 (no)"
- Molecule: "O=C(Nc1cccc(-c2ccc(N3CCOCC3)nn2)c1)Nc1cccc(C(F)(F)F)c1"
  Group: "0 (no)"
- Molecule: "COC(CC(F)F)c1cn(S(=O)(=O)c2ccc(C)cc2)c2ccccc12 (centres undefined)"
  Group: "0 (no)"
- Molecule: "O=C(Cn1cc(CSc2nc3ccccc3o2)nn1)Nc1ccc(F)cc1F"
  Group: "0 (no)"
- Molecule: "Cn1ccnc1C(=O)/C=C/c1ccc(C(=O)Nc2ccc(Cl)cc2)cc1"
  Group: "1 (yes)"
- Molecule: "CC(C)C1=NOC(=O)C1=Cc1cn(-c2ccccc2)nc1-c1ccc(F)cc1"
  Group: "0 (no)"
- Molecule: "c1ccc([P+](c2ccccc2)(c2ccccc2)c2ccc3c4ccc([P+](c5ccccc5)(c5ccccc5)c5ccccc5)c5cccc(c6cccc2c63)c54)cc1"
  Group: "1 (yes)"
- Molecule: "COc1ccc2c(c1OC)CO[C@@H]2[C@H]1c2c(cc3c(c2OC)OCO3)CCN1S(=O)(=O)c1cn(C)cn1"
  Group: "0 (no)"
- Molecule: "O=c1[nH]c(-c2ccccc2)nc2sc3cc(O)ccc3c12"
  Group: "0 (no)"
- Molecule: "COc1ccc(Nc2ncc(Br)c(NCCCNC(=O)C3CCCC3)n2)cc1"
  Group: "0 (no)"
- Molecule: "COc1c(B(O)O)cccc1-c1nc2c(F)cc3[nH]ncc3c2c2c1CCCC2"
  Group: "1 (yes)"
- Molecule: "CCn1cc(C(=O)O)c(=O)c2cc(F)c(N3CCN(CC(=O)Nc4ccc(S(=O)(=O)Nc5nccc(C)n5)cc4)C(C)C3)c(F)c21 (centres undefined)"
  Group: "0 (no)"
- Molecule: "CCOC(=O)n1cc(-c2nonc2-c2cn(C(=O)OCC)c3ccc(Br)cc23)c2ccccc21"
  Group: "0 (no)"
- Molecule: "Cc1cn(-c2cc(NC(=O)c3cncc(C#Cc4cnc(N)c5ncccc45)c3)cc(C(F)(F)F)c2)cn1"
  Group: "0 (no)"
- Molecule: "CC(=O)c1c(C)nc2ccccc2c1/C=C/c1ccc(F)cc1"
  Group: "0 (no)"
- Molecule: "CC(C)(Sc1cc(C(C)(C)C)c(OC(=O)CCCC(=O)O)c(C(C)(C)C)c1)Sc1cc(C(C)(C)C)c(OC(=O)CCCC(=O)O)c(C(C)(C)C)c1"
  Group: "0 (no)"

====

tested on: ACHN renal; assay: NCI-60 one-dose screen, 48 h; settings: 10 µM unless noted
Compounds without any hit were thinned out: in the full panel of roughly 83,000, 20% have a hit. Activity calls are given as the source filed them. Rule for the calls: active = growth percent below 10; inactive = the rest.
Labels: True = active, False = inactive

- Compound: "COc1cc(C2c3cc(OC(C)=O)c(OC)cc3CC3C(=O)OCC32)ccc1OC(C)=O (stereo not drawn)"
  Group: "False"
- Compound: "CCCCCCC12CCC(=O)N1CCc1cncn12 (stereo not drawn)"
  Group: "False"
- Compound: "CCN(C)S(=O)(=O)Nc1cccc(Nc2ncnc3cc(NC(=O)CCl)ccc23)c1Cl"
  Group: "True"
- Compound: "Clc1cccc(Nc2ncnc3ccc(-c4cnc5[nH]ccc5c4)cc23)c1"
  Group: "False"
- Compound: "CC(C)(Sc1cc(C(C)(C)C)c(OC(=O)CCCC(=O)O)c(C(C)(C)C)c1)Sc1cc(C(C)(C)C)c(OC(=O)CCCC(=O)O)c(C(C)(C)C)c1"
  Group: "False"
- Compound: "CCCC/C=C/[C@@H]1C[C@H]1CCO"
  Group: "False"
- Compound: "OB1OCc2cc(/C=C/c3cccc(C(F)(F)F)c3)ccc21"
  Group: "True"
- Compound: "COc1ccc(Nc2ncc(Br)c(NCCCNC(=O)C3CCCC3)n2)cc1"
  Group: "False"
- Compound: "COCCn1cc(-c2csc(-c3cn(C)c4ccc(Br)cc34)n2)c2cccnc21"
  Group: "False"
- Compound: "Nc1ncc(-c2ccc3ncnc(Nc4cccc(Cl)c4)c3c2)cn1"
  Group: "False"
- Compound: "COc1c(B(O)O)cccc1-c1nc2c(F)cc3[nH]ncc3c2c2c1CCCC2"
  Group: "True"
- Compound: "COC1=CC(c2ccc[nH]2)=N/C1=C\\c1[nH]c(C)c(CC(=O)OCc2ccccc2)c1CCC(=O)OCc1ccccc1"
  Group: "True"
- Compound: "O=[N+]([O-])c1ccc(O)cc1Br"
  Group: "False"
